Values compiled from ChEMBL document CHEMBL5523677.

- assay: Lipophilicity, LogD of compound in 1-Octanol/PBS at pH 7.4 by LC-MS analysis
- Assay type: physicochemical
// reported logD per item

### Prompt Need logD, item C=CC(=O)N1CC2(CCN(c3nc(OC4CCN(C)CC4)nc4c(OC)c(-c5c(C)ccc6[nH]ncc56)c(C=C)cc34)CC2)C1
### Response 3.2

### Prompt Consider next the compound C=CC(=O)N1CC2(CCN(c3nc(OC4CCN(C)CC4)nc4c(Cl)c(-c5c(C)ccc6[nH]ncc56)c(F)cc34)CC2)C1 in the same way.
### Response 3.3

### Prompt Consider next the compound C=CC(=O)N1CC2(CCN(c3nc(OC4CCN(C)CC4)nc4c(OCC)c(-c5c(C)ccc6[nH]ncc56)c(C=C)cc34)CC2)C1 in the same way.
### Response 3.7

### Prompt Consider next the compound C=CC(=O)N1CC2(CCN(c3nc(OC4CCN(C)CC4)nc4c(OC5CCC5)c(-c5c(C)ccc6[nH]ncc56)c(C=C)cc34)CC2)C1 in the same way.
### Response > 4.3

* * *

- assay: Drug concentration in tumor of male nude mouse xenografted with KRAS G12C mutant positive human NCI-H1373 cells at 40 mg/kg, po administered as single dose and measured after 6 hrs
- Assay type: ADME, organism-based, Neoplasm
- protocol conditions: read-out: Ct
reported property: concentration at 6 h (nM)
Give the value, in units of nM, as a plain number.

### Prompt Need concentration at 6 h, item C=CC(=O)N1CC2(CCN(c3nc(OC4CCN(C)CC4)nc4c(OCC)c(-c5c(C)ccc6[nH]ncc56)c(C=C)cc34)CC2)C1
### Response 50

* * *

- Tested on: NCI-H1373
- assay: Cytotoxicity against KRAS G12C mutant positive human NCI-H1373 cells assessed as inhibition of cell growth incubated for 6 days by Celltiter-Glo 2.0 assay
- Format: functional, cell-based
- protocol conditions: Homo sapiens, NCI-H1373, 144 h
// reported IC50 per item
Give the value, in units of nM, as a plain number.

### Prompt Need IC50, item C=CC(=O)N1CC2(CCN(c3nc(OC4CCN(C)CC4)nc4c(OCC)c(-c5c(C)ccc6[nH]ncc56)c(C=C)cc34)CC2)C1
### Response 8

### Prompt Consider next the molecule C=CC(=O)N1CC2(CCN(c3nc(OC4CCN(C)CC4)nc4c(Cl)c(-c5c(C)ccc6[nH]ncc56)c(F)cc34)CC2)C1 in the same way.
### Response 100

### Prompt Consider next the molecule C=CC(=O)N1CC2(CCN(c3nc(OC4CCN(C)CC4)nc4c(OC5CCC5)c(-c5c(C)ccc6[nH]ncc56)c(C=C)cc34)CC2)C1 in the same way.
### Response 12

### Prompt Consider next the molecule C=CC(=O)N1CC2(CCN(c3nc(OC4CCN(C)CC4)nc4c(OC)c(-c5c(C)ccc6[nH]ncc56)c(C=C)cc34)CC2)C1 in the same way.
### Response 52

* * *

// reported CLint scaled per item
- assay: Metabolic stability in mouse liver microsomes assessed as intrinsic clearance at 0.1 to 0.2 micromol/L incubated for 30 mins in presence of NADPH-generating system by LC-MS/MS analysis
- Assay type: ADME, Microsome
- protocol conditions: dose 0.1-0.2 µmol/L, read-out: CLH
Give the value, in units of mL/min/kg, as a plain number.

- C=CC(=O)N1CC2(CCN(c3nc(OC4CCN(C)CC4)nc4c(OCC)c(-c5c(C)ccc6[nH]ncc56)c(C=C)cc34)CC2)C1: 119
- C=CC(=O)N1CC2(CCN(c3nc(OC4CCN(C)CC4)nc4c(Cl)c(-c5c(C)ccc6[nH]ncc56)c(F)cc34)CC2)C1: 115

Could you now consider this next molecule?
### Prompt Need CLint scaled, item C=CC(=O)N1CC2(CCN(c3nc(OC4CCN(C)CC4)nc4c(OC5CCC5)c(-c5c(C)ccc6[nH]ncc56)c(C=C)cc34)CC2)C1
### Response 342
